Value source: paper PMC10397247

Reported interaction score values follow for various binders
system: T1, 4H2687-AA
T1 chain: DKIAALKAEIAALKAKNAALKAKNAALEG
assay text: two-hybrid library CCmax;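 note: natural log of median RNA to DNA barcode read ratio; higher means stronger binding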
experimental parameters: mean of both orientations
Enter a number only.

[[record]]
binder = "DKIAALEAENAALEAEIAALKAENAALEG [4H2187-AA]"
recorded_value = -0.754

[[record]]
binder = "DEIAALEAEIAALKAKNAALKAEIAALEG [4H121-AA]"
recorded_value = -0.303

[[record]]
binder = "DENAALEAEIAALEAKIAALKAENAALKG [4H1068-AA]"
recorded_value = 0.562


# input for lookup
[ask] Which interaction score is reported for this binder? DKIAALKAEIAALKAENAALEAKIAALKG [4H2646-AA]
[reply] 1.36
